Data origin, for the record: patent US20260200942A1

For each record, write down the corresponding pIC50.
TARGET: PARP7 (Homo sapiens, UniProt Q7Z3E1)
Sequence (Q7Z3E1 1-657): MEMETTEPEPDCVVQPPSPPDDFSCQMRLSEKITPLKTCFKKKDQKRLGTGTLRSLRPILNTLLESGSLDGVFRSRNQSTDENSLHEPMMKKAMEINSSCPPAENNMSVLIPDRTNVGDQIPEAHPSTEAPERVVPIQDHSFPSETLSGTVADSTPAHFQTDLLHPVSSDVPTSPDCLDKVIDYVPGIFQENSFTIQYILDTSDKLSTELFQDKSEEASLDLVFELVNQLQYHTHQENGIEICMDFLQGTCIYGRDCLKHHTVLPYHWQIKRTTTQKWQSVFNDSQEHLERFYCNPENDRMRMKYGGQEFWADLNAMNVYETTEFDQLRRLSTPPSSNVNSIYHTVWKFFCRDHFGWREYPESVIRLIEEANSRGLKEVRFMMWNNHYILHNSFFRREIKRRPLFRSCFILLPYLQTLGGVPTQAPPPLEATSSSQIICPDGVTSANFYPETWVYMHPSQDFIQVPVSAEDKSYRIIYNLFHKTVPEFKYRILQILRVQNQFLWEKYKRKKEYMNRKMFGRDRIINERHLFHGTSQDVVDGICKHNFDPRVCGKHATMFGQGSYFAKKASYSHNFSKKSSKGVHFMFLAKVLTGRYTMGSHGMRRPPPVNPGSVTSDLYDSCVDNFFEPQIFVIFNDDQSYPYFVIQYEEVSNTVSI
pIC50: −log10 of the molar value.

[[record]]
compound = "CC(=O)Nc1cc(C(F)(F)F)cnc1N1CCN(C(=O)[C@H]2C[C@H](NCc3cc(C(F)(F)F)c(=O)[nH]n3)C2)CC1 [Embodiment 63]"
quantity_kind = "pIC50"
observed_measurement = "> 8.00"

[[record]]
compound = "COc1cc(C(F)(F)F)cnc1N1CCN(C(=O)[C@H]2C[C@H](NC(C)(C)c3cc(C(F)(F)F)c(=O)[nH]n3)C2)CC1 [Embodiment 59]"
quantity_kind = "pIC50"
observed_measurement = "7.00 to 8.00"


Prompt: Request the reported pIC50 associated with C[C@@H](CN1CC[C@H](C(=O)N2C3CCC2CN(c2ncc(C(F)(F)F)cn2)C3)C1)Nc1cn[nH]c(=O)c1C(F)(F)F [Embodiment 6]
Completion: 7.00 to 8.00
